Target: Bcl-2 protein (Recombinant Human Bcl-2 Protein) (Homo sapiens)
Construct: purchased Novus NBP2-34889
Sequence (P10415 whole entry): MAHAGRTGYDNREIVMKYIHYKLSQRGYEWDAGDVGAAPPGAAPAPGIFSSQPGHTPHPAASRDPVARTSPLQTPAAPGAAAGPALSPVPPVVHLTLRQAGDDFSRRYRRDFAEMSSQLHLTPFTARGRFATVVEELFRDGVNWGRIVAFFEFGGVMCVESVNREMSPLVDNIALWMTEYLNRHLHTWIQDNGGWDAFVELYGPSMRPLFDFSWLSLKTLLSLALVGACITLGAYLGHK
Experiment: Binding evaluation of mixture library compounds to Bcl-2 using AS-MS (affinity selection mass spectrometry)
Conditions: AS-MS, mixture library, Bcl-2; replicate n = 1; ASMS Ratio(%)=(A−C)/B×100
observation.type: ASMS ratio (%) n = 1

See these solved cases before continuing.
**Q:** Find the measured ASMS ratio (%) n = 1 of CCOc1cncc(-c2ccc(C(=O)N3CCN(c4ccc(C(=O)NS(=O)(=O)CC56CC7CC(CC(C7)C5)C6)nn4)CC3)cc2C)c1 and report it.
**A:** 0.0

**Q:** Look up and state reported ASMS ratio (%) n = 1 for CCOc1cncc(-c2ccc(CN3CCN(c4ccc(C(=O)NS(=O)(=O)CC56CC7CC(CC(C7)C5)C6)cc4)CC3)c3ccccc23)c1
**A:** 3.2

**Q:** Specify ASMS ratio (%) n = 1 for CCOc1cccc(-c2cc(CN3CCN(c4ccc(C(=O)NS(=O)(=O)c5ccc(NCCSc6ccccc6)c([N+](=O)[O-])c5)cc4)CC3)cc(OC(C)C)c2)c1 and stop.
**A:** 17.5

**Q:** Give the reported ASMS ratio (%) n = 1 for this compound. CCOc1cccc(-c2cc(OC)c(CN3CCN(c4ccc(C(=O)NS(=O)(=O)c5ccc(NCCSc6ccccc6)c([N+](=O)[O-])c5)nn4)CC3)c(OC)c2)c1
**A:** 14.9

**Q:** # return recorded ASMS ratio (%) n = 1 for input CCOc1cncc(-c2ccc(C(=O)N3CCN(c4ccc(C(=O)NS(=O)(=O)CC56CC7CC(CC(C7)C5)C6)nn4)CC3)c3ccccc23)c1
**A:** 7.7

**Q:** Answer with the recorded ASMS ratio (%) n = 1 for the compound listed here: CCOc1cncc(-c2cnn(-c3cc(C(=O)N4CCN(c5ccc(C(=O)NS(=O)(=O)CC67CC8CC(CC(C8)C6)C7)nn5)CC4)cc(C(F)(F)F)c3)c2)c1
**A:** 27.0

**Q:** Specify measured ASMS ratio (%) n = 1 for CCOc1cncc(-c2csc(CN3CCN(c4ccc(C(=O)N(CC)CC)nn4)CC3)c2)c1 .
**A:** −1.3

**Q:** Specify measured ASMS ratio (%) n = 1 for CCOc1cccc(-c2cc(CN3CCN(c4ccc(C(=O)NS(=O)(=O)CC56CC7CC(CC(C7)C5)C6)cc4)CC3)cc(OC(C)C)c2)c1 .
**A:** −4.8

**Q:** Identify ASMS ratio (%) n = 1 associated with the compound CCOc1cccc(-c2ccccc2CN2CCN(c3ccc(C(=O)NS(=O)(=O)CC45CC6CC(CC(C6)C4)C5)cc3)CC2)c1
**A:** 6.5

**Q:** Provide ASMS ratio (%) n = 1 value for the following compound: CCOc1cncc(-c2ccc(C(C)N3CCN(c4ccc(C(=O)N(CC)CC)cc4)CC3)cc2)c1 (stereo not drawn)
**A:** −2.0

A: CCOc1cncc(C#Cc2cncc(C(=O)N3CCN(c4ccc(C(=O)NS(=O)(=O)c5ccc(NCCSc6ccccc6)c([N+](=O)[O-])c5)nn4)CC3)c2)c1
B: CCOc1cncc(-c2csc(CN3CCN(c4ccc(C(=O)NS(=O)(=O)c5ccc(NCCSc6ccccc6)c([N+](=O)[O-])c5)nn4)CC3)c2)c1
C: CCOc1cccc(-c2csc(C(=O)N3CCN(c4ccc(C(=O)NS(C)(=O)=O)nn4)CC3)c2)c1
**Q:** Please put the entries in order of rising ASMS ratio (%) n = 1. Answer by writing out the labels in the requested order.
**A:** C, B, A
(C: 0.0%, B: 7.2%, A: 13.3%)

a: CCOc1cncc(-c2ccc(C(=O)N3CCN(c4ccc(C(=O)NS(=O)(=O)c5ccc(NCCSc6ccccc6)c([N+](=O)[O-])c5)nn4)CC3)cc2F)c1
b: CCOc1cccc(C#Cc2cncc(C(=O)N3CCN(c4ccc(C(=O)NS(=O)(=O)c5ccc(NCCSc6ccccc6)c([N+](=O)[O-])c5)cc4)CC3)c2)c1
**Q:** Please compare: a and b . Report which one has the smaller ASMS ratio (%) n = 1 value. Which one? Tell me its label.
**A:** b
(b: 6.6%, a: 9.5%)

a: CCOc1cncc(-c2cc(CN3CCN(c4ccc(C(=O)NS(=O)(=O)CC56CC7CC(CC(C7)C5)C6)nn4)CC3)cc(OC(C)C)c2)c1
b: CCOc1cccc(-c2cc(C(=O)N3CCN(c4ccc(C(=O)NS(=O)(=O)CC56CC7CC(CC(C7)C5)C6)cc4)CC3)cc(C(F)(F)F)c2)c1
c: CCOc1cccc(-c2cc(OC)c(CN3CCN(c4ccc(C(=O)NS(=O)(=O)CC56CC7CC(CC(C7)C5)C6)cc4)CC3)c(OC)c2)c1
**Q:** Arrange these compounds by their ASMS ratio (%) n = 1, starting with the largest number. Give me the labels in the order the question wants.
**A:** a, b, c

a: CCOc1cccc(-c2ccc(C(=O)N3CCN(c4ccc(C(=O)NS(=O)(=O)c5ccc(NCCSc6ccccc6)c([N+](=O)[O-])c5)cc4)CC3)c3ccccc23)c1
b: CCOc1cccc(-c2cc(CN3CCN(c4ccc(C(=O)NS(=O)(=O)c5ccc(NCCSc6ccccc6)c([N+](=O)[O-])c5)nn4)CC3)cc(C(F)(F)F)c2)c1
c: CCOc1cccc(-c2cc(OC)c(CN3CCN(c4ccc(C(=O)N(CC)CC)nn4)CC3)c(OC)c2)c1
**Q:** Order the records by ASMS ratio (%) n = 1, with each subsequent value no larger than the one before. Provide the ranking by listing each label in its place in the requested order.
**A:** b, a, c
(b: 17.6%, a: 9.9%, c: 0.0%)

A: CCOc1cncc(-c2ccccc2CN2CCN(c3ccc(C(=O)NS(=O)(=O)CC45CC6CC(CC(C6)C4)C5)nn3)CC2)c1
B: CCOc1cncc(C#Cc2ccccc2C(=O)N2CCN(c3ccc(C(=O)NS(=O)(=O)CC45CC6CC(CC(C6)C4)C5)cc3)CC2)c1
**Q:** Could you tell me which of these two has the smaller ASMS ratio (%) n = 1 figure? First: A Second: B When you have decided, please share the label of that item.
**A:** B
(B: 0.0%, A: 12.2%)
